molecular target: ScAbp1; test: SPOT peptide array binding signal intensity (averaged, normalized) (arbitrary units (background-subtracted, floor 0; scale differs between SH3 domains)); higher = stronger binding of the SH3 domain to the peptide
I'd be grateful if you could share measured SPOT peptide array binding signal intensity for these entries.
Write the number on its own, no unit after it.

Value of measured SPOT peptide array binding signal intensity for the entry SNRRPVPRRPSQPLN : 306

PLRRTVMSLPGNHDI yielded SPOT peptide array binding signal intensity of 205

Record summary for NLPKRKPPKLQGPFS : reported SPOT peptide array binding signal intensity = 179

For QLLNPNRRAPRRPLS the binder record lists SPOT peptide array binding signal intensity as 73

Recorded result, RKQRSIPLSPIVPES , SPOT peptide array binding signal intensity: 11

Short answer for SRQAIPPPVPNRPGG : SPOT peptide array binding signal intensity was 16

Reported SPOT peptide array binding signal intensity ( RRSKSLPITPKSIFN ) = 84

For reference, reported SPOT peptide array binding signal intensity for RLPAPPPPPRRGPAP stands at 53

Item: NNQRRKPLLLNIGDH | SPOT peptide array binding signal intensity: 442

Looking up PKMLPIPSKPTLFDL , I found its SPOT peptide array binding signal intensity recorded as 14

// field: SPOT peptide array binding signal intensity; key: SSAAPPPPPRRATPE ; value = 3

SPOT peptide array binding signal intensity reported for this binder HGKRRAPLLLAKLDV : 50

// recorded SPOT peptide array binding signal intensity for TTNRGPPPLPPRANV : 12

Entry RPKRRAPPPVPKKPS ; SPOT peptide array binding signal intensity = 3840
